Tested on: K562 (chronic myelogenous leukemia)
Test: MTS cytotoxicity assay, K562
Format: cell-based
Settings: Homo sapiens
ASSAY ENDPOINT: pIC50
Please note pIC50 is a logarithmic value: minus log10 of concentration in mol/L. Answer with that number alone.

Data request: Recall the reported pIC50 of CSc1ncnc2c1c1c3cccnc3ccc1n2[C@@H]1O[C@H](CO)[C@@H](O)[C@H]1O [14g] on K562 (chronic myelogenous leukemia) and write it down.
Data returned: 4.73

Data request: Recall the reported pIC50 of Cc1ncnc2c1c1c3cccnc3ccc1n2[C@@H]1O[C@H](CO)[C@@H](O)[C@H]1O [14c] on K562 (chronic myelogenous leukemia) and write it down.
Data returned: 4.92

* * *

Consider the following compounds; for each one, report its melting point.

Data request: For the compound Nc1ncnc2c1c1c3cccnc3ccc1n2[C@@H]1O[C@H](CO)[C@@H](O)[C@H]1O [14e] , give its reported melting point.
Data returned: 210 to 235 °C (dec.)

Data request: For the compound CSc1ncnc2c1c1c3cccnc3ccc1n2[C@@H]1O[C@H](CO)[C@@H](O)[C@H]1O [14g] , give its reported melting point.
Data returned: 228 to 242 °C (dec.)

Data request: For the compound COc1ncnc2c1c1c3cccnc3ccc1n2[C@@H]1O[C@H](CO)[C@@H](O)[C@H]1O [14f] , give its reported melting point.
Data returned: 190 to 205 °C (dec.)
